Assay: Inhibition of M1 aminopeptidase in porcine kidney cortex microsomes using Leu-pNA as substrate preincubated for 15 mins followed by substrate addition
Set-up: species or system Sus scrofa
pIC50: −log10 of the molar value.
quantity-measured: pIC50

[[record]]
molecule = "O=C(O)[C@H](Cc1c[nH]c2ccccc12)NC(c1ccco1)c1nnnn1C1CCCCC1 (stereo partly drawn)"
quantity_measured = "pIC50"
measurement = 2.70


1. COc1ccc(C(N[C@@H](Cc2ccc(OCc3ccccc3)cc2)C(=O)O)c2nnnn2C2CCCCC2)cc1 (stereo partly drawn)
2. O=C(O)[C@H](Cc1c[nH]c2ccccc12)NC(c1ccco1)c1nnnn1Cc1ccccc1 (stereo partly drawn)
Query string: From the recorded data, which exceeds the other in pIC50: 1 or 2 ? To answer, give the label that identifies your chosen option.
Result string: 1
(1: 2.80, 2: 2.21)
